- Test system: Adenovirus
- assay procedure: microbe, parasite or virus in culture
- Assay type: cell-based
- measurement setup: unidentified adenovirus, AdV 31
endpoint label: pEC50
In plain terms, pEC50 is the concentration in mol/L turned into minus its base-10 logarithm.

Exam item: Form: Entry = CCCCCCCCCCCCCCCCOCCCOP(=O)(O)CO[C@H](CO)Cn1ccc(N)nc1=O [CMX001, Hexadecyloxypropyl-cidofovir] | System = Adenovirus | pEC50 = ____
Marked response: 6.55

====

- assay procedure: SVG cell viability / cell number (MTS, alamar blue, hematoxylin)
- Assay type: cell-based, human
- measurement setup: human, SVG cells; 0.1 μM, 4 days; read-out: reduction in cell viability (alamar blue)
endpoint label: cytotoxicity at 4 days, 0.1 μM (%)
The response must be a number in % with no trailing unit.

Exam item: Any idea what cytotoxicity at 4 days, 0.1 μM was measured for "CCCCCCCCCCCCCCCCOCCCOP(=O)(O)CO[C@H](CO)Cn1ccc(N)nc1=O" ?
Marked response: 11
